Assign MIC to each entry below.
tested on: Proteus vulgaris; test: Antimicrobial activity against Proteus vulgaris ATCC 6896 by twofold broth dilution method; assay type: functional
State the answer as a number, implicitly in µg/mL.

Value lookup for MIC; key = Cc1cc(=O)oc2cc(OCCCCn3cncn3)cc(OCCCCn3cncn3)c12
2

Moving on to the next compound: Cc1cc(=O)oc2cc(OCCCCBr)cc(OCCCCBr)c12
256

Moving on to the next compound: Cc1cc(=O)oc2cc(OCCCCCCOc3ccc4c(C)cc(=O)oc4c3)ccc12
256

Please answer likewise for Cc1cc(=O)oc2cc(OCCCCn3cncn3)ccc12
16

Cool, now Cc1cc(=O)oc2cc(OCCCCCBr)cc(OCCCCCBr)c12
256

Now this one: Cc1cc(=O)oc2cc(OCc3ccc(CBr)cc3)ccc12
512
